OBSERVATION TYPE: melting point

Recorded result, CS(=O)(=O)c1ccc([C@@H](CC2CCCC2)C(=O)Nc2cnc(-c3ccsc3)cn2)cc1Cl [Example 77] , melting point: 96 to 102 °C

molecule C[S+]([O-])Cc1cnc(NC(=O)[C@H](CC2CCCC2)c2ccc(S(C)(=O)=O)c(Cl)c2)cn1 (stereo partly shown) [Example 38] , melting point observed: 102 to 106 °C

The recorded melting point for entry CS(=O)(=O)c1ccc([C@@H](CC2CCCC2)C(=O)Nc2cnc(C[C@H](O)CO)cn2)cc1Cl [Example 81] equals 61 to 65 °C

Documented melting point of CS(=O)(=O)Nc1ccc(NC(=O)[C@H](CC2CCCC2)c2ccc(S(C)(=O)=O)c(Cl)c2)nc1 [Example 12] : 146 to 150 °C

----------
Please provide measured melting point for the entries that follow.

Field melting point (entry CSCc1cnc(NC(=O)[C@H](CC2CCCC2)c2ccc(S(C)(=O)=O)c(Cl)c2)cn1 [Example 36] ) reads 75 to 76.7 °C

The compound identified as CN(C)c1ccc(NC(=O)[C@H](CC2CCCC2)c2ccc(S(C)(=O)=O)c(Cl)c2)nc1 [Example 14] registered its melting point at 166.2 °C

Quick note, melting point for CS(=O)(=O)c1ccc([C@@H](CC2CCCC2)C(=O)Nc2cnc(-c3cccs3)cn2)cc1Cl [Example 76] landed at 97 to 99 °C

Consider CS(=O)(=O)c1ccc([C@@H](CC2CCCC2)C(=O)Nc2cnc(C[C@@H](O)CO)cn2)cc1Cl [Example 82] . Its measured melting point is 64 to 69 °C

// sample Cc1nc(-c2cnc(NC(=O)C(CC3CCCC3)c3ccc(S(C)(=O)=O)c(Cl)c3)cn2)no1 (stereo not drawn) [Example 33] , its melting point was 101.9 to 104.8 °C

Lookup result for CS(=O)(=O)c1ccc([C@@H](CC2CCCC2)C(=O)Nc2cnc(/C(N)=N\O)cn2)cc1Cl [Example 1] ; measured melting point: 117 to 121 °C

Field melting point (entry CS(=O)(=O)c1ccc([C@@H](CC2CCCC2)C(=O)Nc2cnc(/C(N)=N\O)cn2)cc1 [Example 3] ) reads 223 °C (dec.)

Data point: CS(=O)(=O)c1ccc([C@@H](CC2CCCC2)C(=O)Nc2cnc(C(CO)CO)cn2)cc1Cl [Example 40] ; melting point = 110 to 120 °C

Data point: CN(C)c1cnc(NC(=O)[C@H](CC2CCCC2)c2ccc(S(C)(=O)=O)c(Cl)c2)cn1 [Example 15] ; melting point = 93.3 to 97.7 °C

The reported value for CS(=O)(=O)c1ccc(C(CC2CCCC2)C(=O)Nc2cnc(/C(C#N)=N\O)cn2)cc1Cl (stereo not drawn) [Example 37] in terms of melting point is 130 to 133 °C

Entry under test: C/C(=N/O)c1cnc(NC(=O)[C@H](CC2CCCC2)c2ccc(S(C)(=O)=O)cc2)cn1 [Example 34] . Its melting point was 118.8 to 122.4 °C

Lab book: melting point of CSCc1cnc(NC(=O)C(CC2CCCC2)c2ccc(S(C)(=O)=O)c(Cl)c2)cn1 (stereo not drawn) [Example 30] noted as 70 to 75 °C

Recorded result, CN(C)S(=O)(=O)c1cnc(NC(=O)[C@H](CC2CCCC2)c2ccc(S(C)(=O)=O)c(Cl)c2)cn1 [Example 9] , melting point: 100.2 °C

Reported melting point for CS(=O)(=O)Nc1cnc(NC(=O)[C@H](CC2CCCC2)c2ccc(S(C)(=O)=O)c(Cl)c2)cn1 [Example 13] was 108 to 110 °C

Quick note, melting point for Cc1noc(-c2cnc(NC(=O)[C@H](CC3CCCC3)c3ccc(S(C)(=O)=O)c(Cl)c3)cn2)n1 [Example 35] landed at 101 to 105 °C
